Exercise: for every item that follows, state its recorded Dmax.
- Target Or System: p300 (Homo sapiens)
- Construct: host or cells: A549 P300 HiBit cells
- Sequence (Q09472 whole entry): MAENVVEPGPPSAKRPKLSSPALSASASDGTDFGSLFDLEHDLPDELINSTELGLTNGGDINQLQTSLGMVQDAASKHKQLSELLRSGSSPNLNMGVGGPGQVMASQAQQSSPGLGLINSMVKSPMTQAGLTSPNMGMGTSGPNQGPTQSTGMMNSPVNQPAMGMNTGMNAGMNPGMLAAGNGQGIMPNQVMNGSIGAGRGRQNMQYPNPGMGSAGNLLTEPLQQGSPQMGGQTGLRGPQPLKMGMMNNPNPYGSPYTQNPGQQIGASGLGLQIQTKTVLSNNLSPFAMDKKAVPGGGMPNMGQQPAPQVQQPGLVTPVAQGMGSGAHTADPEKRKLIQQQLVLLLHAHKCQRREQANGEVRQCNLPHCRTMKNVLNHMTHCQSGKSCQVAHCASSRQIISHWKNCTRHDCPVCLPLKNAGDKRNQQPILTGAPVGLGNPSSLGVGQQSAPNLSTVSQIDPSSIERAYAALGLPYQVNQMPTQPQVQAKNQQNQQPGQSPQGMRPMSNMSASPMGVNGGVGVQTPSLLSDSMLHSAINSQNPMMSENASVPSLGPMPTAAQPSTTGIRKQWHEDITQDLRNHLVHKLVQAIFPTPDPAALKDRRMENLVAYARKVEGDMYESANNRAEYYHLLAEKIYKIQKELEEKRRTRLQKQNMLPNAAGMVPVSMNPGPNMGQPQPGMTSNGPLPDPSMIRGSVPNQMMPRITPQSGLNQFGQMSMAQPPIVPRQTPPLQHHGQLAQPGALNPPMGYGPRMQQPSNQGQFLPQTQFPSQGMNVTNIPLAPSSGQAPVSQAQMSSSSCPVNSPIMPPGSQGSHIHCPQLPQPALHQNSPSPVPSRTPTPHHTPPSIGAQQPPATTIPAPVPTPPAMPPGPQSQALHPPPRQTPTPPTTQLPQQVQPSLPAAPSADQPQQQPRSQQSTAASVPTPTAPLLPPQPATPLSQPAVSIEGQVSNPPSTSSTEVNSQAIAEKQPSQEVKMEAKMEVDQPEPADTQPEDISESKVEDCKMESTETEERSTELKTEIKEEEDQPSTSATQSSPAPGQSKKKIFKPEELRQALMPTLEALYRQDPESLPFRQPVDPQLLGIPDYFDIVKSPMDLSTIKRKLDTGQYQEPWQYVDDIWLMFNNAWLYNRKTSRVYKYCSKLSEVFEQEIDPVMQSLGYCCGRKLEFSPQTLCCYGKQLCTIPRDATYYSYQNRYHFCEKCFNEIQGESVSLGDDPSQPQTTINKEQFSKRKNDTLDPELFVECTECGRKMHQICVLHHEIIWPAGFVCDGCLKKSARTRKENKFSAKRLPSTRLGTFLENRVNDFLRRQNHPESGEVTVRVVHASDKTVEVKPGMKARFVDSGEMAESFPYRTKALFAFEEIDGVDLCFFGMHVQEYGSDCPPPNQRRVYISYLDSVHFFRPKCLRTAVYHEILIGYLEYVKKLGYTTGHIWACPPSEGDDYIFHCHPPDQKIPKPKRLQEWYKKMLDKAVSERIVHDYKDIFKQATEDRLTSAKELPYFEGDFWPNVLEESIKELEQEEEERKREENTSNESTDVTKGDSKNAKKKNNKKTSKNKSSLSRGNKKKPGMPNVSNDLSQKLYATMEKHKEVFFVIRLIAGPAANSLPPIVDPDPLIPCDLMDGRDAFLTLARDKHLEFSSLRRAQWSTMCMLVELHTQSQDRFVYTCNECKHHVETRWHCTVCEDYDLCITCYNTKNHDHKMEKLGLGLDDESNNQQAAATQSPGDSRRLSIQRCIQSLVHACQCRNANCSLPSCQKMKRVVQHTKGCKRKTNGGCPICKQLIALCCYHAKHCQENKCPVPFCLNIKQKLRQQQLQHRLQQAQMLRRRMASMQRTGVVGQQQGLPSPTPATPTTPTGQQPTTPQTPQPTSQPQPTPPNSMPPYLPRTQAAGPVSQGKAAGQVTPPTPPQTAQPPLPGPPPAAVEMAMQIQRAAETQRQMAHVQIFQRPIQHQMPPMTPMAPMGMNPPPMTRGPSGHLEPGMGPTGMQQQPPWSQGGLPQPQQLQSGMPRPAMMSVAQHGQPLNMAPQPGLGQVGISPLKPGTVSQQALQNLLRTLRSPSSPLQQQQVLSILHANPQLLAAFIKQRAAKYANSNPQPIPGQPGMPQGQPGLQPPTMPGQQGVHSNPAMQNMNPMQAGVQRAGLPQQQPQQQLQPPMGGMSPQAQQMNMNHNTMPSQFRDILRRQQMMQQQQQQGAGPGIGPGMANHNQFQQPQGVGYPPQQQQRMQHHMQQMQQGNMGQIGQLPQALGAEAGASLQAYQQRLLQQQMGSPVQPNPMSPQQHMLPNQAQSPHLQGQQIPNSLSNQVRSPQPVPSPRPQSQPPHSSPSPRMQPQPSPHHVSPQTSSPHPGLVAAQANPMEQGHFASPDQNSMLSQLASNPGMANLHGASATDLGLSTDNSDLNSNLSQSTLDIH
- Assay Notes: P300 degradation, HiBit technology in A549 P300 HiBit cells (2 h)
- Format: cell-based
- Measurement Parameters: A549, A549 P300 HiBit cells, 2 hrs post treatment

# count of solved cases: 2
Lab note: measured Dmax of Cc1cc2c(N3CCCc4nc(-c5ccc(C(=O)NCC#Cc6cc7c(C8CCC(=O)NC8=O)cccc7o6)nc5)ncc43)nc(N3CC4CC4C3)cc2n(C)c1=O (centres unmarked) was > 80%

Lab note: measured Dmax of Cc1cc(-c2ncc3c(n2)CCCN3c2ccc3c(c2)n(C)c(=O)n3C)cnc1C(=O)NCC#Cc1cc2c(C3CCC(=O)NC3=O)cccc2o1 (centres unmarked) was > 80%

List reported Dmax for each of these compounds:
1. CC(C)c1cc(N2CCC(F)(F)c3cc(-c4ccc(C(=O)NCC#Cc5ccc6occ(C7CCC(=O)NC7=O)c6c5)nc4)ccc32)cc2c1n(C)c(=O)n2C (centres unmarked)
2. CN1C(=O)Cc2cc(-c3cccc4cc(-c5ccc(C(=O)NCC#Cc6ccc7occ(C8CCC(=O)NC8=O)c7c6)nc5)ncc34)ccc21 (centres unmarked)
3. Cc1cc2c(N3CCCc4nc(-c5ccc(C(=O)NCC#Cc6ccc7occ(C8CCC(=O)NC8=O)c7c6)nc5)ncc43)nc(N3CC4CCC(C3)O4)cc2n(C)c1=O (centres unmarked)
4. CC(C)c1cc(-c2cccc3cc(-c4ccc(C(=O)NCC#Cc5ccc6cnn(C7CCC(=O)NC7=O)c6c5)nc4)ncc23)cc2c1n(C)c(=O)n2C (centres unmarked)

> 80%
< 20%
60 to 79%
> 80%

====

Exercise: for every item that follows, state its recorded DC50.
- Target Or System: CBP (Homo sapiens)
- Construct: host or cells: A549 CBP HiBit cells
- Sequence (Q92793 whole entry): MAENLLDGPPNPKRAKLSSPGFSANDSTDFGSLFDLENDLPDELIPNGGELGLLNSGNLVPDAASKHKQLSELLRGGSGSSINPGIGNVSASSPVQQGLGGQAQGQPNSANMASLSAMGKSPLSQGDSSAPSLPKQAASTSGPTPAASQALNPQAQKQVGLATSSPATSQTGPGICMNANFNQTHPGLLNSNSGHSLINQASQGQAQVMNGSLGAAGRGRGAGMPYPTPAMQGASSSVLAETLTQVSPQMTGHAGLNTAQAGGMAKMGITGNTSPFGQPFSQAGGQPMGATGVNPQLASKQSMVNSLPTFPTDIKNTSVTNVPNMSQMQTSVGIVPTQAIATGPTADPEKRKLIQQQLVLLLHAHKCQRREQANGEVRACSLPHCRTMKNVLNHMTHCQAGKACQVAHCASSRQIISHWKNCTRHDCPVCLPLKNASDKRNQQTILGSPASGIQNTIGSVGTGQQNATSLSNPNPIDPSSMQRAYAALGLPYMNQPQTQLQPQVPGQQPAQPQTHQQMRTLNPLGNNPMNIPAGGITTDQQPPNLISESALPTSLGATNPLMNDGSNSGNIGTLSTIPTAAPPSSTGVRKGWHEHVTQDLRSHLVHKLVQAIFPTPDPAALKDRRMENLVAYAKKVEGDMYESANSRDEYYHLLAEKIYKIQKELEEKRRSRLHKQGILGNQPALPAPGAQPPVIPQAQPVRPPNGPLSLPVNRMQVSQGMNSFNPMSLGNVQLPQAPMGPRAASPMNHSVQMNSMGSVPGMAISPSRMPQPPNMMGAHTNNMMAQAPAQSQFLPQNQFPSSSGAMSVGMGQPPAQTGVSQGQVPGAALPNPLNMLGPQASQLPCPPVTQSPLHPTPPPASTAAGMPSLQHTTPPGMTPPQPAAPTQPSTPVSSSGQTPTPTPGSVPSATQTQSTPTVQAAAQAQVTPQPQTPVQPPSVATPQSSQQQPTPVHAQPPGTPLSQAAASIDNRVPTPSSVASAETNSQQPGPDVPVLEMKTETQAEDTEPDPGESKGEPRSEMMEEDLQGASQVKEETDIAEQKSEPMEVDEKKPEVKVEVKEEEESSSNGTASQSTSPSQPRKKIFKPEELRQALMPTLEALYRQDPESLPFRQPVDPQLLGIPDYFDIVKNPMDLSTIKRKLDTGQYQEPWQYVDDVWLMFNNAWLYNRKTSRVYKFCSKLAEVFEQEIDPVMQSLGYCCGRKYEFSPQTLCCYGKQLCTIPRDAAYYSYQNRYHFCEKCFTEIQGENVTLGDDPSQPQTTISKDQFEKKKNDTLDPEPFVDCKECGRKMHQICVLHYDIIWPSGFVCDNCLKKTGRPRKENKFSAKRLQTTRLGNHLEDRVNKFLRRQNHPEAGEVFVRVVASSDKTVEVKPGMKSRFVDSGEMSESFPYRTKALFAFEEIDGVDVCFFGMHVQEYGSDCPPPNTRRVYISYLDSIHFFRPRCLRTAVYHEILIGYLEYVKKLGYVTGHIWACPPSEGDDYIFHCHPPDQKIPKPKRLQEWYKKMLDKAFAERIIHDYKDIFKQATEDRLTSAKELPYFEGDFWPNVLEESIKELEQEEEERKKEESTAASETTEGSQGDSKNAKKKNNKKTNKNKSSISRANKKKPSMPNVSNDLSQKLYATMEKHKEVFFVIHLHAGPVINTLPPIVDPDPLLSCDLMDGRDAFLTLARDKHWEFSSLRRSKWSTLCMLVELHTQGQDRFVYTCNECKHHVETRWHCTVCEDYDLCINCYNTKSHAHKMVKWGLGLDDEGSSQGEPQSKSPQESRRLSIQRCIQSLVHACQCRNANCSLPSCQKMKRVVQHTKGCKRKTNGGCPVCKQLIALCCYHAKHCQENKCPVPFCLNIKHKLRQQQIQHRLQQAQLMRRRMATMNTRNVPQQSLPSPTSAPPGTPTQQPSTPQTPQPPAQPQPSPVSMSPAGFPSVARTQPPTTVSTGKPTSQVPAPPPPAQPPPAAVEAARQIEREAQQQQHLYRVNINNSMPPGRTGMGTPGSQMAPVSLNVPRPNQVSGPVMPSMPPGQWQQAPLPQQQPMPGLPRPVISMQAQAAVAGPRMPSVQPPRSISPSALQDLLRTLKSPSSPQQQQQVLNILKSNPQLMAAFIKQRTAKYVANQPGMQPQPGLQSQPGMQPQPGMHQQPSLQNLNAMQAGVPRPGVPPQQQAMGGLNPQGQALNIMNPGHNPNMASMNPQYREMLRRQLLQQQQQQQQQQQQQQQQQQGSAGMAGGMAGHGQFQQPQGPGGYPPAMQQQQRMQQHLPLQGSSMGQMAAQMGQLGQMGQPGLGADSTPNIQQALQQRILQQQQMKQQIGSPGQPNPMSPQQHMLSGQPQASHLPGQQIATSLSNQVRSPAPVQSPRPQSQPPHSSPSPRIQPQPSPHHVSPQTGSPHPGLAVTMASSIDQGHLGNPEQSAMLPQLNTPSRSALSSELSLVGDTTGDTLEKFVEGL
- Assay Notes: CBP degradation, HiBit technology in A549 CBP HiBit cells (24 h)
- Type: cell-based
- Measurement Parameters: 24 hrs post treatment

# count of solved cases: 10
Lab note: measured DC50 of Cc1cc2c(N3CCCc4nc(-c5ccc(C(=O)NCC#Cc6cc7c(C8CCC(=O)NC8=O)cccc7o6)nc5)ncc43)cc(C3COC3)nc2n(C)c1=O (stereo not shown) was > 1000 nM

Lab note: measured DC50 of Cc1cc2c(N3CCCc4nc(-c5ccc(C(=O)NCC#Cc6ccc7occ(C8CCC(=O)NC8=O)c7c6)nc5)ncc43)cc(C3CCOCC3)cc2n(C)c1=O (stereo not shown) was > 1000 nM

Lab note: measured DC50 of Cc1cc(-c2ncc3c(n2)OCCN3c2ccc3c(c2)n(C)c(=O)n3C)cnc1C(=O)NCC#Cc1cc2c(C3CCC(=O)NC3=O)cccc2o1 (stereo not shown) was > 1000 nM

Lab note: measured DC50 of Cc1cc2c(N3CCCc4nc(-c5ccc(C(=O)NCC#Cc6cc7c(C8CCC(=O)NC8=O)nccc7o6)nc5)ncc43)cc(C(C)C)cc2n(C)c1=O (stereo not shown) was 10 to 99 nM

Lab note: measured DC50 of COc1nc(-c2cnc(C(=O)NCC#Cc3cc4c(C5CCC(=O)NC5=O)cccc4o3)c(C)c2)ncc1Nc1cc(C2CCOCC2)cc2c1cc(C)c(=O)n2C (stereo not shown) was > 1000 nM

Lab note: measured DC50 of CCn1c(=O)n(C)c2c(N3CCOCC3)nc(-c3cccc4cc(-c5ccc(C(=O)NCC#Cc6cc7c(C8CCC(=O)NC8=O)cccc7o6)nc5)ncc34)cc21 (stereo not shown) was > 1000 nM

Lab note: measured DC50 of Cc1cc(-c2ncc(N(C)c3cc(C4CCOCC4)c4c(c3)n(C)c(=O)n4C)cn2)cnc1C(=O)NCC#Cc1ccc2occ([C@H]3CCC(=O)NC3=O)c2c1 was > 1000 nM

Lab note: measured DC50 of CC(C)c1cc(C2=CC(C)(C)Oc3cc(-c4ccc(C(=O)NCC#Cc5ccc6occ(C7CCC(=O)NC7=O)c6c5)nc4)c(F)cc32)cc2c1n(C)c(=O)n2C (stereo not shown) was > 1000 nM

Lab note: measured DC50 of Cc1cc(-c2ncc3c(n2)OCCN3c2ccc3c(c2)n(C)c(=O)n3C)cnc1C(=O)NCC#Cc1cc2c([C@@H]3CCC(=O)NC3=O)cccc2o1 was > 1000 nM

Lab note: measured DC50 of Cc1cc(-c2cc3cccc(-c4cc5c(c(N6CCOCC6)n4)n(C)c(=O)n5C)c3cn2)cnc1C(=O)NCC#Cc1ccc2occ(C3CCC(=O)NC3=O)c2c1 (stereo not shown) was > 1000 nM

List reported DC50 for each of these compounds:
1. Cc1cc(N2CCOc3nc(-c4ccc(C(=O)NCC#Cc5cc6c(C7CCC(=O)NC7=O)cccc6o5)nc4)ncc32)cc2c1n(C)c(=O)n2C (stereo not shown)
2. CCN(c1cnc(-c2cnc(C(=O)NCC#Cc3ccc4occ(C5CCC(=O)NC5=O)c4c3)c(C)c2)nc1)c1cc(C2CCOCC2)c2c(c1)n(C)c(=O)n2C (stereo not shown)
3. Cc1cc2c(-c3cn(C)c(=O)c4cc(-c5ccc(C(=O)NCC#Cc6cc7c(C8CCC(=O)NC8=O)cccc7o6)nc5)ncc34)cc(C3CCOCC3)nc2n(C)c1=O (stereo not shown)

1: 100 to 999 nM; 2: > 1000 nM; 3: > 1000 nM
